Values compiled from patent US10660877B2.

Listed below: pIC50 values for each entry.
# System Under Test: human TLR9 (Homo sapiens (Human), UniProt Q9NR96)
# Sequence (Q9NR96 26-1032): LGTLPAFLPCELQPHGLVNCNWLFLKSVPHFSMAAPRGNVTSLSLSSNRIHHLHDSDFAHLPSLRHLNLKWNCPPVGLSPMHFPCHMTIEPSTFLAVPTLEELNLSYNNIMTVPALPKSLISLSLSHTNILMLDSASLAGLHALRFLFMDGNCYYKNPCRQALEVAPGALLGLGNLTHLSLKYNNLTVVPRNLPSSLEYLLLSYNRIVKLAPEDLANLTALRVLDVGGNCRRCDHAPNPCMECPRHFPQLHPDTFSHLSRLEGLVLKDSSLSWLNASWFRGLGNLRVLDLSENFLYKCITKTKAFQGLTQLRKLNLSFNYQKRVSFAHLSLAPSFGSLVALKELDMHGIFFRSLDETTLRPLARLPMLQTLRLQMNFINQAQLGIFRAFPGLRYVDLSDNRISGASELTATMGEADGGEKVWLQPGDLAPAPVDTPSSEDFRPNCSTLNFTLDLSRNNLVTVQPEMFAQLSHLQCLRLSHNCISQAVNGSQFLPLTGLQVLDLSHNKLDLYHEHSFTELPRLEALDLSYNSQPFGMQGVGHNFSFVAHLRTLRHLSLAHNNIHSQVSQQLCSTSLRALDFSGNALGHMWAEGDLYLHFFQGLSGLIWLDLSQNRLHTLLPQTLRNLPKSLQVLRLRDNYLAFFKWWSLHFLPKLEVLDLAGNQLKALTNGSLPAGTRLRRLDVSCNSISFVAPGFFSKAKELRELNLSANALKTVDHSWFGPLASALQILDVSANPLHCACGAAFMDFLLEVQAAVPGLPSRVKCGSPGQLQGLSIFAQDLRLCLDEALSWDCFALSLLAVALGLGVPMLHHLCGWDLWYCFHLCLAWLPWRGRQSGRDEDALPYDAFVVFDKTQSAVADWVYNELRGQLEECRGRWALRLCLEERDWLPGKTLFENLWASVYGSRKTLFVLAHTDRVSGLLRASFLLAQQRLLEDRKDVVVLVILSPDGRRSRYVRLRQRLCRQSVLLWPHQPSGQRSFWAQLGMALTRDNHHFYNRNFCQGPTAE
# Assay Remarks: TLR9 inhibition reporter assay (HEK-Blue cells, SEAP reporter, ODN2006 stimulation)
# Condition Summary: read-out: TLR9 IC50, HEK-Blue cells overexpressing human TLR9, ODN2006 5 nM
Scale for pIC50: -log10 of concentration given in mol/L; no unit attached.

Example entries begin here.
>  <Compound>
Cc1cc(-c2[nH]c3ccc(C4CCN(C(=O)CNC5(C)CCC5)CC4)cc3c2C(C)C)cc(C)n1

>  <pIC50>
6.37

$$$$
>  <Compound>
Cc1cc(-c2[nH]c3ccc(C4CCN(C(=O)CN(C)C)CC4)cc3c2C(C)C)cc(C2CC2)n1

>  <pIC50>
5.96

$$$$
>  <Compound>
Cc1cc(-c2[nH]c3ccc(C4CCN(C5COC5)CC4)cc3c2C(C)C)cc(C)n1

>  <pIC50>
5.86

$$$$
>  <Compound>
Cc1cc(-c2[nH]c3ccc(C4CCN(CC(=O)N[C@H](C)C(F)(F)F)CC4)cc3c2C(C)C)cc(C)n1

>  <pIC50>
5.74

$$$$
>  <Compound>
CC(C)c1c(-c2ccnc(N(C)C)c2)[nH]c2ccc(C3CCNCC3)cc12

>  <pIC50>
5.77

$$$$

Field pIC50 (entry Cc1cc(-c2[nH]c3ccc(C4CCN(CC(=O)N(CCO)Cc5ccc(F)cc5)CC4)cc3c2C(C)C)cc(C)n1 ) reads 5.78

Field pIC50 (entry Cc1cc(-c2[nH]c3ccc(C4CCN(CCC(F)(F)F)CC4)cc3c2C(C)C)cc(C)n1 ) reads 5.77

Field pIC50 (entry Cc1cc(-c2[nH]c3ccc(C4CCN(C(=O)C5CCOCC5)CC4)cc3c2C(C)C)cc(C)n1 ) reads 4.51

Field pIC50 (entry CNC(=O)CN1CCC(c2ccc3[nH]c(-c4cc(C)nc(F)c4)c(C(C)C)c3c2)CC1 ) reads 5.16

Field pIC50 (entry Cc1cc(-c2[nH]c3ccc(C4CCN(Cc5ccccc5)CC4)cc3c2C(C)C)cc(C)n1 ) reads 6.11

Field pIC50 (entry COc1cc(-c2[nH]c3ccc(C4CCN(C5CCN(C(C)C)CC5)CC4)cc3c2C(C)C)ccn1 ) reads 6.22

Field pIC50 (entry Cc1cc(-c2[nH]c3ccc(C4CCN(CC5CCN(C)CC5)CC4)cc3c2C(C)C)ccn1 ) reads 6.55

Field pIC50 (entry Cc1nccc(-c2[nH]c3ccc(C4CCN(C5COC5)CC4)cc3c2C(C)C)c1F ) reads 5.03

Field pIC50 (entry Cc1cc(-c2[nH]c3ccc(C4CCN(C(=O)C5(N)CC5)CC4)cc3c2C(C)C)cc(C)n1 ) reads 5.28

Field pIC50 (entry CCC(CC)N1CCC(c2ccc3[nH]c(-c4cc(C)nc(C)c4)c(C(C)C)c3c2)CC1 ) reads 7.03

Field pIC50 (entry Cc1cc(-c2[nH]c3ccc(C4CCN(C(=O)Cc5csc(C)n5)CC4)cc3c2C(C)C)cc(C)n1 ) reads 4.54

Field pIC50 (entry Cc1cc(-c2[nH]c3ccc(C4CCN(C(=O)[C@@H]5CC(F)(F)CN5)CC4)cc3c2C(C)C)cc(C)n1 ) reads 4.82

Field pIC50 (entry Cc1cc(-c2[nH]c3ccc(C4CCN(C5CCNC(C)C5)CC4)cc3c2C(C)C)ccn1 (stereo not shown) ) reads 6.31

Field pIC50 (entry COc1ncc(CN2CCC(c3ccc4[nH]c(-c5cc(C)ncc5F)c(C(C)C)c4c3)CC2)cn1 ) reads 5.74

Field pIC50 (entry Cc1cc(-c2[nH]c3ccc(C4CCN(Cc5c[nH]c(C)n5)CC4)cc3c2C(C)C)cc(C)n1 ) reads 7.05

Field pIC50 (entry Cc1cc(-c2[nH]c3ccc(C4CCN(C(=O)CN5CC[C@H](N)C5=O)CC4)cc3c2C(C)C)cc(C)n1 ) reads 6.01

* * *

# System Under Test: UniProt Q9NR97
# Sequence (Q9NR97 27-1041): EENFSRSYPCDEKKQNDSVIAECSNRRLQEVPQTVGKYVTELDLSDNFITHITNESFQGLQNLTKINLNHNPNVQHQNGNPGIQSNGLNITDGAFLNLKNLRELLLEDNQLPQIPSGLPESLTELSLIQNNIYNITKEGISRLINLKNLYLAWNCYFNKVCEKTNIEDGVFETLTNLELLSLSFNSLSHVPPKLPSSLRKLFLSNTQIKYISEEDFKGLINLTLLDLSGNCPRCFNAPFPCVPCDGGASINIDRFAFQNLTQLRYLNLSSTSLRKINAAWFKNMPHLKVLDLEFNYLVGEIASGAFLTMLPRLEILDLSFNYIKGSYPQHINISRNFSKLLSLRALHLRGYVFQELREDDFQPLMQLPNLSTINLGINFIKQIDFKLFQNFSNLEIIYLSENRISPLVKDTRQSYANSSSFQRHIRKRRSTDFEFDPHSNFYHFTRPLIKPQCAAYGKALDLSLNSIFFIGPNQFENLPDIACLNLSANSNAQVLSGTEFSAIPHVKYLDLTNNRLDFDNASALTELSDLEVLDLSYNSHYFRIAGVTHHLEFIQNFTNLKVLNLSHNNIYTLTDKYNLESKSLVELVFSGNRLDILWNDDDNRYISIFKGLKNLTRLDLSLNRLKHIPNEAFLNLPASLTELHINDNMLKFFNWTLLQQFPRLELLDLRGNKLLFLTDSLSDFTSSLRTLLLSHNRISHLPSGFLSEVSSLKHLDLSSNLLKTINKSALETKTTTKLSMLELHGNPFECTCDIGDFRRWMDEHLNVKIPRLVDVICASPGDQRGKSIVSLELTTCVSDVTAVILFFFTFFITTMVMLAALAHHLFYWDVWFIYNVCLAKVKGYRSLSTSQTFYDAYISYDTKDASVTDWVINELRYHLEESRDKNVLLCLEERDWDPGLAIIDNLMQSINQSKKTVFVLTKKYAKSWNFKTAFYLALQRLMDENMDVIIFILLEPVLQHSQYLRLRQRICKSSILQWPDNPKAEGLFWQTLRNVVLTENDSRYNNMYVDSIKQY
# Assay Remarks: TLR8 inhibition reporter assay (HEK-Blue cells, SEAP reporter, R848 stimulation);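 further: compounds tested from 0.05 nM to 50 µM, 22 h at 37 °C, SEAP measured with HEK-Blue Detection, inhibition relative to agonist plus DMSO versus a known inhibitor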
# Condition Summary: read-out: TLR8 IC50, HEK-Blue cells overexpressing human TLR8, R848 15.9 μM
Sorting guide: entries reporting IC50 beneath 20 nM go in the 1 (yes) pile, the rest go in the 0 (no) pile.

>  <Smiles Entry>
Cc1cc(-c2[nH]c3cc(F)c(C4CCNCC4)cc3c2C(C)C)c(F)cn1

>  <Assigned Label>
1 (yes)

$$$$
>  <Smiles Entry>
CNC(=O)CN1CCC(c2ccc3[nH]c(-c4cc(C)nc(C5CC5)c4)c(C(C)C)c3c2)CC1

>  <Assigned Label>
0 (no)

$$$$
>  <Smiles Entry>
CCc1c(-c2cc(C)nc(C)c2)[nH]c2ccc(C3CCN(C(=O)CN(C)C)CC3)cc12

>  <Assigned Label>
0 (no)

$$$$
>  <Smiles Entry>
Cc1cc(-c2[nH]c3ccc(C4CCN(CC(C)C)CC4)cc3c2C(C)C)cc(C)n1

>  <Assigned Label>
1 (yes)

$$$$
>  <Smiles Entry>
Cc1cc(-c2[nH]c3ccc(C4CCN(CC(=O)NCCO)CC4)cc3c2C(C)C)cc(C)n1

>  <Assigned Label>
1 (yes)

$$$$
>  <Smiles Entry>
Cc1cc(-c2[nH]c3ccc(C4CCN(CCOc5ccccc5)CC4)cc3c2C(C)C)ccn1

>  <Assigned Label>
0 (no)

$$$$

Task: Report whether reported IC50 is lower than 20 nM (strictly) for Cc1cc(-c2[nH]c3ccc(C4CCN(Cc5ncco5)CC4)cc3c2C(C)C)c(F)cn1
Result: 1 (yes)

Task: Report whether reported IC50 is lower than 20 nM (strictly) for Cc1cc(-c2[nH]c3ccc(C4CCN(CC(=O)N5CCC[C@@H]5CO)CC4)cc3c2C(C)C)cc(C)n1
Result: 0 (no)

Task: Report whether reported IC50 is lower than 20 nM (strictly) for CCc1c(-c2ccnc(OC)c2)[nH]c2ccc(C3CCN([C@H]4CCCNCC4)CC3)cc12
Result: 0 (no)

Task: Report whether reported IC50 is lower than 20 nM (strictly) for CCCNC(=O)CN1CCC(c2ccc3[nH]c(-c4cc(C)nc(C)c4)c(C(C)C)c3c2)CC1
Result: 1 (yes)

Task: Report whether reported IC50 is lower than 20 nM (strictly) for Cc1cc(-c2[nH]c3ccc(C4CCN(CC5CCN(C(C)C)CC5)CC4)cc3c2C(C)C)ccn1
Result: 1 (yes)

Task: Report whether reported IC50 is lower than 20 nM (strictly) for Cc1cc(-c2[nH]c3ccc(C4CCN(Cc5cncs5)CC4)cc3c2C(C)C)c(F)cn1
Result: 1 (yes)

Task: Report whether reported IC50 is lower than 20 nM (strictly) for Cc1cc(-c2[nH]c3ccc(C4CCN(C(=O)C5(C)CC5)CC4)cc3c2C(C)C)ccn1
Result: 0 (no)

Task: Report whether reported IC50 is lower than 20 nM (strictly) for Cc1cc(-c2[nH]c3ccc(C4CCN(C(=O)C(F)(F)F)CC4)cc3c2C(C)C)ccn1
Result: 0 (no)

Task: Report whether reported IC50 is lower than 20 nM (strictly) for CCc1c(-c2ccnc(C)c2)[nH]c2ccc(C3CCN(C(=O)C4CC5(CCNCC5)C4)CC3)cc12
Result: 0 (no)

Task: Report whether reported IC50 is lower than 20 nM (strictly) for Cc1cc(-c2[nH]c3ccc(C4CCN(C(=O)CN(C)C)CC4)cc3c2C(C)C)cc(C2CC2)n1
Result: 0 (no)

* * *

# System Under Test: human TLR9 (Homo sapiens (Human), UniProt Q9NR96)
# Assay Remarks: TLR9 inhibition reporter assay (HEK-Blue cells, SEAP reporter, ODN2006 stimulation);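 further: compounds tested over 0.05 nM to 50 µM, 22 h incubation, inhibition taken as SEAP signal drop from agonist plus DMSO wells toward a known inhibitor control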
# Condition Summary: read-out: TLR9 IC50, HEK-Blue cells overexpressing human TLR9, ODN2006 5 nM
pIC50: −log10 of the molar value.
# pIC50 binned as bin A = under 5, bin B = from 5 up to 6, bin C = 6 and over

>  <Compound>
CCCNCC(=O)N1CCC(c2ccc3[nH]c(-c4cc(C)nc(C)c4)c(C(C)C)c3c2)CC1

>  <Assigned Label>
bin C

$$$$
>  <Compound>
Cc1ccc(OC(=O)N2CCC(c3ccc4[nH]c(-c5ccnc(C)c5)c(C(C)C)c4c3)CC2)cc1

>  <Assigned Label>
bin B

$$$$
>  <Compound>
CCN(CC)CC(=O)N1CCC(c2ccc3[nH]c(-c4cc(C)nc(C)c4)c(C(C)C)c3c2)CC1

>  <Assigned Label>
bin C

$$$$
>  <Compound>
Cc1cc(-c2[nH]c3ccc(C4CCN(C(=O)C5CC(=O)N(C)C5)CC4)cc3c2C(C)C)ccn1 (centres unmarked) [Example 619]

>  <Assigned Label>
bin A

$$$$
>  <Compound>
CNCCN1CCC(c2ccc3[nH]c(-c4ccnc(C(=O)OC)c4)c(C)c3c2)CC1

>  <Assigned Label>
bin C

$$$$
>  <Compound>
COc1ccc(CN2CCC(c3ccc4[nH]c(-c5cc(C)nc(C)c5)c(C(C)C)c4c3)CC2)cn1

>  <Assigned Label>
bin C

$$$$
>  <Compound>
Cc1cc(-c2[nH]c3ccc(C4CCN(C(=O)Cn5nnc(N6CCOCC6)n5)CC4)cc3c2C(C)C)cc(C)n1

>  <Assigned Label>
bin A

$$$$
>  <Compound>
CCCS(=O)(=O)N1CCC(c2ccc3[nH]c(-c4ccnc(C)c4)c(C(C)C)c3c2)CC1

>  <Assigned Label>
bin A

$$$$
>  <Compound>
Cc1cc(-c2[nH]c3ccc(C4CCN(C(=O)CN5CC(F)(F)C[C@H]5CO)CC4)cc3c2C(C)C)cc(C)n1

>  <Assigned Label>
bin A

$$$$
>  <Compound>
Cc1cc(-c2[nH]c3ccc(C4CCN(CC(=O)N5CCC(F)(F)CC5)CC4)cc3c2C(C)C)cc(C)n1

>  <Assigned Label>
bin C

$$$$

Task: Classify this compound: CCc1cc(-c2[nH]c3ccc(C4CCN(CCNC)CC4)cc3c2C)ccn1
Result: bin C

Task: Classify this compound: Cc1cc(-c2[nH]c3ccc(C4CCN(CC(=O)N(C)C)CC4)cc3c2C(C)C)c(F)cn1
Result: bin B
